Numbers sourced from patent US8053574B2.

STUDY TARGET: PI3K γ (Homo sapiens)
EXPERIMENTAL PROTOCOL: PI3 kinase phosphorylation assay (Biological Method 1), Ki γ
Type: biochemical
SETUP CONDITIONS: Table 3, compounds of formula XI
OBSERVABLE: Ki (µM)

Guide cases for Ki, answers given:
*Q* Any idea what its Ki is? The molecule is O=C(NCCc1nnn(CCF)n1)Nc1nc2ccc(-c3cccnc3)cc2s1
*A* 0.008

*Q* Any idea what its Ki is? The molecule is COc1ccc(-c2ccc3nc(NC(=O)NCc4cccnc4)sc3c2)cn1
*A* 0.149

[P] O=C(NCCc1nnn(CCF)n1)Nc1nc2ccc(-c3cncc(C(F)(F)F)c3)cc2s1
[Q] CC(C)n1nnc(CCNC(=O)Nc2nc3ccc(-c4cncc(C(F)(F)F)c4)cc3s2)n1
*Q* Hi, I'm comparing two records. Which one has the lower Ki, P or Q ? State your choice using its label.
*A* P

* * *

STUDY TARGET: PI3K γ (Homo sapiens)
EXPERIMENTAL PROTOCOL: PI3 kinase phosphorylation assay (Biological Method 1), Ki γ
Type: biochemical
SETUP CONDITIONS: Table 1, compounds of formula X
OBSERVABLE: Ki (µM)

Guide cases for Ki, answers given:
*Q* API: value(readout=Ki, system=PI3K γ (Homo sapiens)) for record CCn1nnc(CCNC(=O)Nc2cn3cc(-c4cnc5ccccc5c4)ccc3n2)n1 [drawing 73]
*A* 0.57

*Q* API: value(readout=Ki, system=PI3K γ (Homo sapiens)) for record CC(C)n1nnc(CCNC(=O)Nc2cn3cc(-c4cccc(F)c4)ccc3n2)n1 [drawing 69]
*A* 0.836

[I] CCn1nnc(CCNC(=O)Nc2cn3cc(-c4cncc5ccccc45)ccc3n2)n1 [drawing 97]
[II] O=C(NCCc1nnn(CCF)n1)Nc1cn2cc(-c3cncc(C(F)(F)F)c3)ccc2n1 [drawing 83]
*Q* Which record would sort first by descending Ki, I or II ? State your choice using its label.
*A* I

* * *

STUDY TARGET: PI3K γ (Homo sapiens, UniProt P48736)
Sequence (P48736 whole entry): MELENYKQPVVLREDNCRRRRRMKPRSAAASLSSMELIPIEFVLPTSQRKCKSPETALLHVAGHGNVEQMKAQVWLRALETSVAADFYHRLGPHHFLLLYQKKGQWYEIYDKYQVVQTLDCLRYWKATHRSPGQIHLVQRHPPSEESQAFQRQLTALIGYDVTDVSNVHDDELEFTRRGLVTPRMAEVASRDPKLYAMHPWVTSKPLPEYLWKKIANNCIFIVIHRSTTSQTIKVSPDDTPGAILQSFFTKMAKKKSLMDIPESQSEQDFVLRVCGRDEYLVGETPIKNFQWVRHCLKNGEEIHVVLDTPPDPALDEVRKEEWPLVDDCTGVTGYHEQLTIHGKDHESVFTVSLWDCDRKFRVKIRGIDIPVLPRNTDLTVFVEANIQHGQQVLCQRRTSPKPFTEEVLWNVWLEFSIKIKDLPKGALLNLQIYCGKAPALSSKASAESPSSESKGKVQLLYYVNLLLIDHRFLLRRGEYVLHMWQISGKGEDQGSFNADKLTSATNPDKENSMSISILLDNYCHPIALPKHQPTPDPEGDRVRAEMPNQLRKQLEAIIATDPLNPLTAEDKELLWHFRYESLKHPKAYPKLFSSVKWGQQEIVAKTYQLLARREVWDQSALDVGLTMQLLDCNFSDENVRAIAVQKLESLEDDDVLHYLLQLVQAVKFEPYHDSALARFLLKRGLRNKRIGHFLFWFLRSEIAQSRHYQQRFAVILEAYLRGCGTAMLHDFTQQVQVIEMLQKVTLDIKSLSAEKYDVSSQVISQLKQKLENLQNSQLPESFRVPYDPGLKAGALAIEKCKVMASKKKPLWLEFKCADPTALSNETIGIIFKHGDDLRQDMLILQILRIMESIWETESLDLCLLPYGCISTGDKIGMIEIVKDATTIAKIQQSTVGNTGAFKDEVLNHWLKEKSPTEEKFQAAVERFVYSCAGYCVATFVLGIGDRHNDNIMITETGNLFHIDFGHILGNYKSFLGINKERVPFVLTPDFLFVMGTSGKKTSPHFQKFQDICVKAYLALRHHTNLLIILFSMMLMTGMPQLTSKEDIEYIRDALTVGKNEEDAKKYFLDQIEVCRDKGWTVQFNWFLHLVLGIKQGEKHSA
EXPERIMENTAL PROTOCOL: PI3 kinase phosphorylation assay (Biological Method 1), Ki γ
Type: biochemical
SETUP CONDITIONS: Table 2, compounds of formula X
OBSERVABLE: Ki (µM)

[1] O=C(NCCc1nnn(CCF)n1)Nc1cn2cc(-c3cncc(C(F)(F)F)c3)ccc2n1
[2] CCn1nnc(CCNC(=O)Nc2cn3cc(-c4cc(Cl)ccc4OC)ccc3n2)n1
[3] CCc1nnn(CCNC(=O)Nc2cn3cc(-c4cncc(C(F)(F)F)c4)ccc3n2)n1
*Q* Sort the items above on Ki, descending. List labels; respect the requested ordering.
*A* 2, 3, 1
(2: 0.204 µM, 3: 0.026 µM, 1: 0.002 µM)

* * *

STUDY TARGET: PI3K γ (Homo sapiens, UniProt P48736)
EXPERIMENTAL PROTOCOL: PI3 kinase phosphorylation assay (Biological Method 1), Ki γ
Format: biochemical
SETUP CONDITIONS: Table 1, compounds of formula X
OBSERVABLE: Ki (µM)

*Q* Any idea what its Ki is? The molecule is CC(C)n1nnc(CCNC(=O)Nc2cn3cc(-c4cncc(C#N)c4)ccc3n2)n1 [drawing 19]
*A* 0.04

*Q* Any idea what its Ki is? The molecule is CC(C)n1nnc(CCNC(=O)Nc2cn3cc(-c4ccccc4)ccc3n2)n1 [drawing 75]
*A* 0.423

*Q* Any idea what its Ki is? The molecule is CC(C)n1nnc(CCNC(=O)Nc2cn3cc(-c4cncc(C(F)(F)F)c4)ccc3n2)n1 [drawing 27]
*A* 0.018

*Q* Any idea what its Ki is? The molecule is CCOc1cncc(-c2ccc3nc(NC(=O)NCCc4nnn(C(C)C)n4)cn3c2)c1 [drawing 25]
*A* 0.048

*Q* Any idea what its Ki is? The molecule is CCn1nnc(CCNC(=O)Nc2cn3cc(-c4cnn(Cc5ccccc5)c4)ccc3n2)n1
*A* 0.735

[P] CCn1nnc(CCNC(=O)Nc2cn3cc(Br)ccc3n2)n1 [drawing 103]
[Q] CCc1nnn(CCNC(=O)Nc2cn3cc(-c4cncc(C#N)c4)ccc3n2)n1 [drawing 65]
[R] CCn1nnc(CCNC(=O)Nc2cn3cc(-c4ccc5c(c4)OCO5)ccc3n2)n1 [drawing 29]
[S] CCn1nnc(CCNC(=O)Nc2cn3cc(-c4cncc(C(F)(F)F)c4)ccc3n2)n1 [drawing 81]
*Q* Ascending by Ki, please. List labels; respect the requested ordering.
*A* S, Q, R, P

[a] CC(C)(C)NC(=O)CCNC(=O)Nc1cn2cc(-c3cncc(OC4CCOCC4)c3)ccc2n1 [drawing 49]
[b] CCn1nnc(CCNC(=O)Nc2cn3cc(-c4cccc(C(F)(F)F)c4)ccc3n2)n1 [drawing 31]
*Q* Which record would sort first by descending Ki, a or b ? State your choice using its label.
*A* a
